All values here come from patent US7396958B2.

Quantity: melting point (°C)

Compound | Quantity | Measured Number
COc1ccc(S(=O)(=O)N(CC(N)=O)c2cc(Cl)ccc2Cc2ccccc2Cl)cc1OC | melting point | 86.4
COc1ccc(S(=O)(=O)N(CC(N)=O)c2ccc(Cl)cc2N(C)c2ccccc2)cc1OC | melting point | 192.5

1. CNC(=O)CN(c1ccc(Cl)cc1C(C)c1ccccc1Cl)S(=O)(=O)c1ccc(OC)c(OC)c1 (stereo not shown)
2. COc1ccc(S(=O)(=O)N(CC(N)=O)c2c(OC)cccc2-c2ccccc2)cc1OC
Problem: Could you check which of 1 and 2 has a smaller value for melting point? Please respond with the label that marks your chosen entry.
Solution: 2
(2: 86.8 °C, 1: 151 °C)

###

Target Under Test: human orexin 1 receptors (Homo sapiens)
Construct: expressed in transfected cells; host or cells: CHO cells (membrane preparation)
Sequence (O43613 whole entry): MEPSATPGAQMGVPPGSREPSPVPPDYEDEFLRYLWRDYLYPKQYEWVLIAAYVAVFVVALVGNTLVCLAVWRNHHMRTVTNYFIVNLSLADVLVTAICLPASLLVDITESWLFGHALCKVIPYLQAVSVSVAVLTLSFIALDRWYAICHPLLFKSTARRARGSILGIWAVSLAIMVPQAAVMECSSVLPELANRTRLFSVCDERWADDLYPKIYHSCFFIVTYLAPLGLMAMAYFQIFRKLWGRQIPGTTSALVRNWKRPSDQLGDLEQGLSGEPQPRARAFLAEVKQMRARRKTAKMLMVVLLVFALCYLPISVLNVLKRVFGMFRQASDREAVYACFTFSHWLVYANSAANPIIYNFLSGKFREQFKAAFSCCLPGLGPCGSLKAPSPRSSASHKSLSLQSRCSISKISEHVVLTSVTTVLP
Test Details: in vitro binding: displacement of radio-iodinated orexin A on CHO cell membrane preparation
Particulars: membrane preparation of CHO cells expressing human orexin 1 receptors, unit μM, read-out: IC50 OX 1
Procedure: They were in particular tested as regards their effects. […] This method consists in studying the displacement of radio-iodinated orexin A bound to human orexin 2 receptors expressed in CHO cells. The test is performed on membranes in a Hepes 50 mM, MgCl2 1 mM, CaCl2 25 mM, NaN3 0.025%, bovine serum albumin (BSA) 1% incubation buffer and 100 pM of ligand, for 30 minutes at 25° C. The reaction is quenched by filtration and washing on a Whatman GF/C filter. […]
Quantity: IC50

// known answers, use as guide
Molecule | Result
CNC(=O)CN(c1ccc(Cl)cc1N(C)c1ccccc1)S(=O)(=O)c1ccc(OC)c(OC)c1 [Compound 124] | > 10 µM
COc1ccc(S(=O)(=O)N(CC(N)=O)c2ccc(Cl)cc2C(O)c2cccc(Cl)c2)cc1OC (stereo not drawn) [Compound 44] | > 10 µM

Let us examine a further case.
Problem: Looking for the measured IC50 of CNC(=O)CN(c1ccc(Cl)cc1C(O)c1ccccc1)S(=O)(=O)c1ccc(OC)c(OC)c1 (stereo not drawn) [Compound 137] , can you help?
Solution: > 10 µM

###

Target Under Test: orexin 2 receptors (Homo sapiens)
Sequence (O43614 whole entry): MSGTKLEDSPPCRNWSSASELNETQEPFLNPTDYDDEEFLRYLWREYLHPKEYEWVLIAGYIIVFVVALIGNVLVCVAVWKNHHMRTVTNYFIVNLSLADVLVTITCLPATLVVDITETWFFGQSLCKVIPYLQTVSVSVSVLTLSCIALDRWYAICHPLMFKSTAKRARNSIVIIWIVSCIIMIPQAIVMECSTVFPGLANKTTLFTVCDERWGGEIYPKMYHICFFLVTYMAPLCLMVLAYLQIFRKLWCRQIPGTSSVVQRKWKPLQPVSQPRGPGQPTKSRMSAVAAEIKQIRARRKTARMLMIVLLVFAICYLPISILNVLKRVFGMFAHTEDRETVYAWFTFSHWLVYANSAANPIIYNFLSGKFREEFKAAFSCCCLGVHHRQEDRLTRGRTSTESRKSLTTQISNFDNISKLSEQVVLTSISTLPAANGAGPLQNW
Test Details: in vitro binding: displacement of radio-iodinated orexin A on CHO cell membranes
Parameters: expressed in transfected cells; host or cells: CHO cells (membranes)
Particulars: human orexin 2 receptors in CHO cell membranes, 100 pM ligand, 30 minutes at 25° C., read-out: IC50 OX 2
pIC50: −log10 of the molar value.
Quantity: pIC50

Would you please look over these solved cases?
Compound | Measured Number
COc1ccc(S(=O)(=O)N(CC(N)=O)c2cc(N(C)C)ccc2Cc2c(F)cccc2F)cc1OC | 8.05
COc1ccc(S(=O)(=O)N(Cc2nccn2C)c2ccc(Cl)cc2Cc2ccccc2Cl)cc1OC | 7.70
Cc1ccc(S(=O)(=O)N(CC(N)=O)c2ccc(Cl)cc2C(O)c2ccccc2Cl)cc1C (stereo not drawn) | 7.21

a. CCOC(=O)CN(c1ccc(Cl)cc1C(O)c1ccccc1Cl)S(=O)(=O)c1ccc(OC)c(OC)c1 (stereo not drawn)
b. COc1ccc(S(=O)(=O)N(CC(N)=O)c2ccc(Cl)cc2C(O)c2cccc(Cl)c2)cc1OC (stereo not drawn)
c. CNC(=O)CN(c1ccc(Cl)cc1N(C)c1ccccc1)S(=O)(=O)c1ccc(OC)c(OC)c1
d. COc1ccc(N(CC(N)=O)S(=O)(=O)c2ccc(OC)c(OC)c2)c(Cc2ccccc2Cl)c1
Problem: With regard to pIC50, arrange the entries in ascending order, please. In your reply, arrange the labels in the requested order.
Solution: b, c, a, d

A. COc1cccc(S(=O)(=O)N(CC(N)=O)c2ccc(Cl)cc2C(O)c2ccccc2Cl)c1 (stereo not drawn)
B. CNC(=O)CN(c1ccc(Cl)cc1C(O)c1ccccc1)S(=O)(=O)c1ccc(OC)c(OC)c1 (stereo not drawn)
Problem: Of A and B , which one carries the higher reported pIC50? Identify your pick by its label.
Solution: B
